subject.of.test: RNA-binding protein pos-1 (Caenorhabditis elegans, UniProt G5EF15)
Sequence (G5EF15 whole entry): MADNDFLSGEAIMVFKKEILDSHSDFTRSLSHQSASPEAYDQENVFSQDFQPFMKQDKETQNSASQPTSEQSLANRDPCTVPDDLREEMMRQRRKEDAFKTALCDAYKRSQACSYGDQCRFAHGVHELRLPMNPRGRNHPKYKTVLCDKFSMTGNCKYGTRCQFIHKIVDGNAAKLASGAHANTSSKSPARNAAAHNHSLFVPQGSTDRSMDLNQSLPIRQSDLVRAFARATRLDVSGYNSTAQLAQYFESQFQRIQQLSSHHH
protocol: disruptors of C. elegans POS-1 RNA interaction – biochemical, fluorescence polarization, dose response (AID 1964);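 further: purified POS-1 fused to maltose binding protein made in E. coli; potency of compounds blocking POS-1 binding to fluorescent RNA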
The source made the active and inactive calls.
EC50 overview

[
  {
    "molecule": "COc1ccc(C2CC(=O)C(/C=N/CCCO)=C(O)C2)cc1 (stereo not drawn)",
    "subject.of.test": "RNA-binding protein pos-1 (Caenorhabditis elegans, UniProt G5EF15)",
    "EC50": "34.8 µM (active)"
  },
  {
    "molecule": "O=C(CCc1ccc(O)c(O)c1)N/N=C/c1cc2c(cc1[N+](=O)[O-])OCO2",
    "subject.of.test": "RNA-binding protein pos-1 (Caenorhabditis elegans, UniProt G5EF15)",
    "EC50": "24 µM (active)"
  },
  {
    "molecule": "N/C(=N\\N=C/c1ccc(-c2ccc(O)c(C(=O)O)c2)o1)N[N+](=O)[O-]",
    "subject.of.test": "RNA-binding protein pos-1 (Caenorhabditis elegans, UniProt G5EF15)",
    "EC50": "29.9 µM (active)"
  }
]

---

Catalogue of AC50 values
subject.of.test: Microphthalmia-associated transcription factor (Homo sapiens, UniProt O75030)
Sequence (O75030 whole entry): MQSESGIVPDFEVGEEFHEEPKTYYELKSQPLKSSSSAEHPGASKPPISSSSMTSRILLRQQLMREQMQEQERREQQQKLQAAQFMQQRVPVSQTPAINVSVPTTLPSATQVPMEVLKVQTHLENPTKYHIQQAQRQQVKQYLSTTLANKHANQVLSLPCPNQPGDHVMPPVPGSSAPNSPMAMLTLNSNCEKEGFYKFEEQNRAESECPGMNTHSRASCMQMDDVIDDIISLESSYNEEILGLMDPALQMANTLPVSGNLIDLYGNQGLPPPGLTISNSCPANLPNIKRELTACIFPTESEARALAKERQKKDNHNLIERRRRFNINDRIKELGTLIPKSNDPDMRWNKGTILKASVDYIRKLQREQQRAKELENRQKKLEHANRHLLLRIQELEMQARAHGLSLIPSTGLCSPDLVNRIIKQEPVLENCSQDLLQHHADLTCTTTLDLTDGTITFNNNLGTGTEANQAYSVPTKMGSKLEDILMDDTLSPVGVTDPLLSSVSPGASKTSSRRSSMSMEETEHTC
protocol: reducers of TRPM1 reporter luminescence, concentration series – cell-based, SK-MEL-5, cherry-picked, set 3, MITF inhibitor project, dose response (AID 493073);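 further: SK-MEL-5 melanoma cells with luciferase driven by the MITF target TRPM1 promoter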
Assay type: functional
Active and inactive are the calls of the source.

[
  {
    "compound.smiles": "Nc1nc2ccccc2n1/N=C/c1ccc([N+](=O)[O-])s1",
    "subject.of.test": "Microphthalmia-associated transcription factor (Homo sapiens, UniProt O75030)",
    "AC50": "2.81 µM (active)"
  },
  {
    "compound.smiles": "CCOC(=O)N1C(=O)[C@@](CC)(c2ccccc2)N1C(=O)OCC",
    "subject.of.test": "Microphthalmia-associated transcription factor (Homo sapiens, UniProt O75030)",
    "AC50": "12.5 µM (active)"
  },
  {
    "compound.smiles": "CC1=C(C#N)C(=O)N(CCO)C(=O)/C1=N/Nc1ccc2c(c1)COC2=O",
    "subject.of.test": "Microphthalmia-associated transcription factor (Homo sapiens, UniProt O75030)",
    "AC50": "9.69 µM (active)"
  },
  {
    "compound.smiles": "CCCN(CC(=O)Nc1ccccc1C)C(=O)CCl",
    "subject.of.test": "Microphthalmia-associated transcription factor (Homo sapiens, UniProt O75030)",
    "AC50": "4.04 µM (active)"
  },
  {
    "compound.smiles": "CCCCCCn1c(=O)c(C(=O)Nc2cnccn2)c(O)c2ccccc21",
    "subject.of.test": "Microphthalmia-associated transcription factor (Homo sapiens, UniProt O75030)",
    "AC50": "3.68 µM (active)"
  },
  {
    "compound.smiles": "COc1cc(NC(=O)c2[nH]cnc2C(N)=O)cc(C(=O)Nc2cccc(C(F)(F)F)c2)c1",
    "subject.of.test": "Microphthalmia-associated transcription factor (Homo sapiens, UniProt O75030)",
    "AC50": "10.9 µM (active)"
  }
]

---

subject.of.test: Fatty acid synthase (Homo sapiens)
Sequence (P49327 whole entry): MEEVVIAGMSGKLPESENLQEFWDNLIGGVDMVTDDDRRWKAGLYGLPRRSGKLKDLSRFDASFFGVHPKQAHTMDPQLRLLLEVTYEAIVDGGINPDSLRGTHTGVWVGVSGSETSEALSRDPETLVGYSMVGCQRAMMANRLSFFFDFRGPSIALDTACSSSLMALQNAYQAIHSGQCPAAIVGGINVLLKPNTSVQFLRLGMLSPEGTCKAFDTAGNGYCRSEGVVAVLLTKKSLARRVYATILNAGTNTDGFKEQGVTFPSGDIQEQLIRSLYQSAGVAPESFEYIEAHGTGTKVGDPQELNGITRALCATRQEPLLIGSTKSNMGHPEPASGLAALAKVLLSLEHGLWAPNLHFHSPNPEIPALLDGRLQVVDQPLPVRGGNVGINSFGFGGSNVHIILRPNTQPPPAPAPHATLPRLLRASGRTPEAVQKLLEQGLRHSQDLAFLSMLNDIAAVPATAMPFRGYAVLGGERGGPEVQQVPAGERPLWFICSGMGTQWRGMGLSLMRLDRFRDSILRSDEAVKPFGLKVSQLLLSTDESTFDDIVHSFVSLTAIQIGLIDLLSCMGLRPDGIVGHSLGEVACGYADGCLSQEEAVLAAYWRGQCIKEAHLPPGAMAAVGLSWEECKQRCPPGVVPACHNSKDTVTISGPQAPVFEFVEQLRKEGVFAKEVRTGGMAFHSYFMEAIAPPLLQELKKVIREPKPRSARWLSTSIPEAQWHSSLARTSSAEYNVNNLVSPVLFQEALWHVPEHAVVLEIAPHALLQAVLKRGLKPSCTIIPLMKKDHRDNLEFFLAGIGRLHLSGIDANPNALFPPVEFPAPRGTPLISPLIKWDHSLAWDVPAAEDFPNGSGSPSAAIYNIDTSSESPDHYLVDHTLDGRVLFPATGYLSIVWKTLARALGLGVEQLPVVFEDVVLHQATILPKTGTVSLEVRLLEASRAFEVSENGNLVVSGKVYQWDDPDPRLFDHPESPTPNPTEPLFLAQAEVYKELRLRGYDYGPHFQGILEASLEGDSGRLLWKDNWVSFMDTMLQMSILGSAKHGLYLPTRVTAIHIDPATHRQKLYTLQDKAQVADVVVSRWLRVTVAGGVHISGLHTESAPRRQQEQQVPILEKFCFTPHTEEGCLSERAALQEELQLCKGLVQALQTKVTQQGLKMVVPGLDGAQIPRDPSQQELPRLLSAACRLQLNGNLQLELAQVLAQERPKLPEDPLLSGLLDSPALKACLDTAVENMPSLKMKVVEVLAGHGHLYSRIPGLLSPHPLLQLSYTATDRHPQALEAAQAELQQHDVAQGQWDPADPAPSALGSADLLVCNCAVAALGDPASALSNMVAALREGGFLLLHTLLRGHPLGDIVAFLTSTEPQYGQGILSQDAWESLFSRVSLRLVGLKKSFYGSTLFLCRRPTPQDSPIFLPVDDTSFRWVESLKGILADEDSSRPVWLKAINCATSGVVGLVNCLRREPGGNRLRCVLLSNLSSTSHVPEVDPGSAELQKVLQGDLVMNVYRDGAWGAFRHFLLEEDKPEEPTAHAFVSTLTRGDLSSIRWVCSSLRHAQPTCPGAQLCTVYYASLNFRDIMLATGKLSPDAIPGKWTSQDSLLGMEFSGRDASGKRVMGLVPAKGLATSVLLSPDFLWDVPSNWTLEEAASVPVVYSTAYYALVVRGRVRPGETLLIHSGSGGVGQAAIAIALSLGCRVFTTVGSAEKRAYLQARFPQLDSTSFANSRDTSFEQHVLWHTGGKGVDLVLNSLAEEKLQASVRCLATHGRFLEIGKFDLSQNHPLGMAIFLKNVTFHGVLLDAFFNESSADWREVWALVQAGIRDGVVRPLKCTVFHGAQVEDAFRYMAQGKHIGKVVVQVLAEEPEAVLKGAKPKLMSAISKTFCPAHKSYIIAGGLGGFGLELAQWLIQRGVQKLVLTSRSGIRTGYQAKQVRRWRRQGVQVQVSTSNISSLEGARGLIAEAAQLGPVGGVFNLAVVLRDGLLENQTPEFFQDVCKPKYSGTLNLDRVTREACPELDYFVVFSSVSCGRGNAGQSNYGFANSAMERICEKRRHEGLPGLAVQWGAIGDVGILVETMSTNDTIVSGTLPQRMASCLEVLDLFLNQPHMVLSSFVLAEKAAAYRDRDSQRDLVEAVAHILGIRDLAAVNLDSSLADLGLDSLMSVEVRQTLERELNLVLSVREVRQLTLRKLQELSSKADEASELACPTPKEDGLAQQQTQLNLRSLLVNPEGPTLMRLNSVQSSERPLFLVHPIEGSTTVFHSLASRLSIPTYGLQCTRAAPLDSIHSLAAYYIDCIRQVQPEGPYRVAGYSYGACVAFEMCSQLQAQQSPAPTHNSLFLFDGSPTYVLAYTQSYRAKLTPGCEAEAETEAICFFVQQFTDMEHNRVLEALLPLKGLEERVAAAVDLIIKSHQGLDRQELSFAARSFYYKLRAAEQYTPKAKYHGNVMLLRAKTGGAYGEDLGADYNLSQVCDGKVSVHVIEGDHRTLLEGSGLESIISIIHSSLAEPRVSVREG
protocol: inhibition of human FAS-TE enzyme activity – biochemical, endpoint fluorescence intensity, uHTS hits, dose response (AID 624327);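 further: fluorescence from hydrolysis of an O-methyl fluorescein acyl ester substrate by the enzyme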
Assay type: functional
Calls of active or inactive are those of the source.
Recorded measurements of IC50, one per entry
experimental.readout: IC50

[
  {
    "compound": "CC(C)(C)c1ccc(/C=C2\\CCn3c2nc2cc(C(=O)O)ccc2c3=O)cc1",
    "subject.of.test": "Fatty acid synthase (Homo sapiens)",
    "result": "3.26 µM (active)"
  },
  {
    "compound": "CC[C@@H](C)[C@H](NC(=O)OC(C)(C)C)c1nnc(S(=O)(=O)Cc2cc(C)ccc2C)o1",
    "subject.of.test": "Fatty acid synthase (Homo sapiens)",
    "result": "3.33 µM (active)"
  },
  {
    "compound": "CC1CCN(C(=O)c2ccc3c(Cl)c4c(nc3c2)CCCC4)CC1",
    "subject.of.test": "Fatty acid synthase (Homo sapiens)",
    "result": "5.24 µM (active)"
  },
  {
    "compound": "CCn1c(=S)sc2c(=O)n(CC(=O)NC(C)CCc3ccccc3)c(C)nc21 (stereo unspecified)",
    "subject.of.test": "Fatty acid synthase (Homo sapiens)",
    "result": "9.52 µM (active)"
  },
  {
    "compound": "O=C(NC(Nc1ncc(S(=O)(=O)c2ccc([N+](=O)[O-])cc2)s1)(C(F)(F)F)C(F)(F)F)c1ccc(Cl)cc1",
    "subject.of.test": "Fatty acid synthase (Homo sapiens)",
    "result": "9.12 µM (active)"
  },
  {
    "compound": "O=C(CCn1c(=O)c2ccccc2n(Cc2cccc([N+](=O)[O-])c2)c1=O)N1CCc2ccccc2C1",
    "subject.of.test": "Fatty acid synthase (Homo sapiens)",
    "result": "1.26 µM (active)"
  }
]

---

subject.of.test: Calpain-2 catalytic subunit (Sus scrofa, UniProt P43367)
Sequence (P43367 whole entry): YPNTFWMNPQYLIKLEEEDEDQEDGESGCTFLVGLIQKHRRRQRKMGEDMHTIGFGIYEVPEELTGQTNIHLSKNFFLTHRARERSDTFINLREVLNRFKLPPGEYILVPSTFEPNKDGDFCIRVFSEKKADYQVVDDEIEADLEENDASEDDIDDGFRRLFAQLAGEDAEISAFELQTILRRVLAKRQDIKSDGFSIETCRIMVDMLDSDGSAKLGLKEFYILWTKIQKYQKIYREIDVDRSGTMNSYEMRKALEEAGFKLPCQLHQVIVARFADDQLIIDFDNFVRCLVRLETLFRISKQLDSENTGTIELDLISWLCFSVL
protocol: m-calpain protease blockers, concentration series – biochemical, fluorogenic peptide substrate, dose response (AID 1420)
Assay type: functional

[
  {
    "compound": "COc1cccc(NC(S)=NN=C2CCCCCC2)c1",
    "subject.of.test": "Calpain-2 catalytic subunit (Sus scrofa, UniProt P43367)",
    "IC50": "> 50 µM (not active)"
  },
  {
    "compound": "CCCN(CCC)C(=O)CC(c1ccccc1)c1cc(Br)ccc1O (stereo unspecified)",
    "subject.of.test": "Calpain-2 catalytic subunit (Sus scrofa, UniProt P43367)",
    "IC50": "16 µM (not active)"
  },
  {
    "compound": "CC(C)(C)c1ccc(OCCNC(=S)Nc2ccccc2)cc1",
    "subject.of.test": "Calpain-2 catalytic subunit (Sus scrofa, UniProt P43367)",
    "IC50": "8.08 µM (not active)"
  },
  {
    "compound": "CC(C)(C)N(Cc1ccccc1)C(=O)CCc1ccccc1",
    "subject.of.test": "Calpain-2 catalytic subunit (Sus scrofa, UniProt P43367)",
    "IC50": "32.5 µM (not active)"
  },
  {
    "compound": "Nn1c(SCC(=O)NC(=O)Nc2ccc3c(c2)OCCO3)nnc1C1CC1",
    "subject.of.test": "Calpain-2 catalytic subunit (Sus scrofa, UniProt P43367)",
    "IC50": "9.49 µM (not active)"
  },
  {
    "compound": "CC(C)Nc1nnc(Sc2ccc(Cl)cc2[N+](=O)[O-])s1",
    "subject.of.test": "Calpain-2 catalytic subunit (Sus scrofa, UniProt P43367)",
    "IC50": "4.91 µM (not active)"
  },
  {
    "compound": "O=C(N=Nc1c(O)[nH]c2ccc([N+](=O)[O-])cc12)c1cc(-c2ccccc2Cl)nc2ccccc12",
    "subject.of.test": "Calpain-2 catalytic subunit (Sus scrofa, UniProt P43367)",
    "IC50": "4.56 µM (not active)"
  },
  {
    "compound": "Cc1cc(C)c(S(=O)(=O)Nc2ccc3c(c2)CCC3)c(C)c1",
    "subject.of.test": "Calpain-2 catalytic subunit (Sus scrofa, UniProt P43367)",
    "IC50": "11.4 µM (not active)"
  },
  {
    "compound": "CC(C)CCNC(=O)C12CN(Cc3ccccc3)CC1C(c1ccc([N+](=O)[O-])cc1)=NO2 (stereo unspecified)",
    "subject.of.test": "Calpain-2 catalytic subunit (Sus scrofa, UniProt P43367)",
    "IC50": "7.38 µM (not active)"
  },
  {
    "compound": "O=C(OCCN1C(=O)c2ccccc2C1=O)c1ccc(S(=O)(=O)N2CCCCCC2)cc1",
    "subject.of.test": "Calpain-2 catalytic subunit (Sus scrofa, UniProt P43367)",
    "IC50": "> 50 µM (not active)"
  },
  {
    "compound": "COc1ccc(/N=c2\\[nH]c(=O)c3cc([N+](=O)[O-])ccc3s2)cc1",
    "subject.of.test": "Calpain-2 catalytic subunit (Sus scrofa, UniProt P43367)",
    "IC50": "> 50 µM (not active)"
  }
]
